System: MAP2K6 (human), P52564 [S207E/T211E]
Sequence (P52564 whole entry S207E/T211E, looked up): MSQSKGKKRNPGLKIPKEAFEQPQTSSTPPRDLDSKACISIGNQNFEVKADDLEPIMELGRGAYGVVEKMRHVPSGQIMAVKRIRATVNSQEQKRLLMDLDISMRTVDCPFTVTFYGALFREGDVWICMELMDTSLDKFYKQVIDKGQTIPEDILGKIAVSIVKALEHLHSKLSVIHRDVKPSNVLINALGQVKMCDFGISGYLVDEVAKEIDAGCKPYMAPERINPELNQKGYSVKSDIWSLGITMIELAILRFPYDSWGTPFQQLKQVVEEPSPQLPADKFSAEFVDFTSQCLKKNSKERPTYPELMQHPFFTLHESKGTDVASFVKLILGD
assay_method_text: radiometric filter-binding kinase assay, Kinase HotSpot
condition_context: compound 0.5 µM; ATP 10 µM
property_name: residual activity
Remember to quote the unit after the number.

O=C(O)/C=C/c1cc(Br)c(Br)c(Br)c1Br = 96.1%
CC(C)c1nn(-c2c(Cl)cccc2Cl)c2nc(Cc3ccc(OCCO)cc3)nc(O)c12 = 92.7%
COc1cccc(-c2cc(=O)c3ccccc3o2)c1N = 92.4%
N#C/C(=C1/Nc2ccccc2S1)c1ccnc(NCCc2cccnc2)n1 = 92.5%

# per-item lookup of residual activity; items listed below
1. CN(C)S(=O)(=O)c1ccc2c(c1)/C(=C/c1cc3c([nH]1)CCCC3)C(=O)N2
2. Cc1nc2cc3nc(-c4cccs4)cnc3cc2n1C
3. CS(=O)(=O)CCNCc1ccc(-c2ccc3ncnc(Nc4ccc(OCc5cccc(F)c5)c(Cl)c4)c3c2)o1

94.6%
104%
95.4%

# per-item lookup of residual activity; items listed below
1. CN([C@@H](Cc1ccc(OS(=O)(=O)c2cccc3cnccc23)cc1)C(=O)N1CCN(c2ccccc2)CC1)S(=O)(=O)c1cccc2cnccc12
2. COc1cc2c(cc1OC)-c1[nH]nc(Nc3cccc(F)c3)c1C2
3. CO[C@@H]1[C@H](N(C)C(=O)c2ccccc2)C[C@H]2O[C@]1(C)n1c3ccccc3c3c4c(c5c6ccccc6n2c5c31)C(=O)NC4
4. COc1cc2ncnc(N3CCN(C(=O)Nc4ccc(Oc5ccccc5)cc4)CC3)c2cc1OC

1: 104%; 2: 87%; 3: 91.4%; 4: 96%

# per-item lookup of residual activity; items listed below
1. CN(C)C[C@H]1CCn2c(c(C3=C(c4cn(C)c5ccccc45)C(=O)NC3=O)c3ccccc32)C1
2. CCn1cnc2c(Nc3cccc(Cl)c3)nc(N[C@@H]3CCCC[C@@H]3N)nc21
3. O=C1C(Cl)=C(N2C(=O)CCC2=O)C(=O)c2ccccc21
4. CC(C)[C@H](CO)Nc1nc(Nc2cc(N)cc(Cl)c2)c2ncn(C(C)C)c2n1

1: 109%; 2: 100%; 3: 107%; 4: 92.5%

# per-item lookup of residual activity; items listed below
1. COc1ccc(OC)c2c(=S)c3ccccc3[nH]c12
2. Cc1ccc(NC(=O)c2ccc(CN3CCN(C)CC3)cc2)cc1Nc1nc(-c2cccnc2)cs1
3. N#CC(C#N)=C(N)/C(C#N)=C/c1ccc(O)cc1
4. c1ccc(-c2n[nH]c3c2oc2ccccc23)cc1
5. Cc1cccc(-c2nc(C(C)(C)C)[nH]c2-c2ccc3c(c2)OCO3)n1

89.9%
96.5%
94%
92.9%
105%

Origin of the recorded values: the kinase profiling compilation of Christmann-Franck et al. (2016)
